biological target: Alpha-bungarotoxin (Bungarus multicinctus) (UniProt P60615); experiment: alpha-bungarotoxin binders on microarray, profiling panel, artefact control for SMM control protein annotation, biochemical, small-molecule microarray, Alexa647 label, 635/667 nm fluorescence (AID 1117); details: alpha-BTX-A647 binding fluorescence, higher = more signal
Sequence (P60615 whole entry, looked up): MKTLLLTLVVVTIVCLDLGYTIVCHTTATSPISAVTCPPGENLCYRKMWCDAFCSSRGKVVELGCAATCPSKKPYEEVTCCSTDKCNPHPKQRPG
Readout Kind: composite z-score
The response must contain the number and no unit.

Worked examples, 2 molecules total:
[
  {
    "Line Notation": "COc1ccc(C(=O)Nc2cccc(CN3C(=O)[C@]4(O[C@H](CC(=O)N5CCC[C@H]5CO)[C@@H]([Si](C)(C)c5ccc(OC)cc5)[C@@H]4C)c4ccccc43)c2)cc1",
    "Assayed Target": "Alpha-bungarotoxin (Bungarus multicinctus) (UniProt P60615)",
    "Quantitative Readout": 0.954
  },
  {
    "Line Notation": "CC(=O)NCCCC[C@@H]1NC(=O)[C@@H]2C[C@H](C(=O)NCCCCCCNC(=O)CS)[C@H](c3ccc(O)cc3)N2C1=O",
    "Assayed Target": "Alpha-bungarotoxin (Bungarus multicinctus) (UniProt P60615)",
    "Quantitative Readout": 1.36
  }
]

// returns composite z-score for COCCOC(=O)N1C(=O)[C@@]2(c3cc(C#CC4=CCCCC4)ccc31)[C@H](C(=O)NC[C@H](O)c1ccccc1)[C@H]1C(=O)O[C@H](c3ccccc3)[C@H](c3ccccc3)N1[C@@H]2c1ccc(O)cc1 with Alpha-bungarotoxin (Bungarus multicinctus) (UniProt P60615); value = 1.13

---

test: small-molecule microarray binders of probe aShh, primary screen, biochemical, biotinylated probe, 635/667 nm fluorescence (AID 1114); settings: higher = more signal;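 further: probe is biotin-labelled aShh protein from a stem cell growth factor screen; measures binding of labelled protein to compounds printed on the slide; score merges feature fluorescence at 667 nm with signal-to-noise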
// values below are reported composite z-score
Give a plain numeric answer without units written out.

Below are worked cases with known answers.
[
  {
    "Compound": "COCCOC(=O)N1C(=O)[C@@]2(c3cc(C#CCC(C(=O)OC)C(=O)OC)ccc31)[C@H](c1ccccc1OCCO)N1[C@H](c3ccccc3)[C@H](c3ccccc3)OC(=O)[C@H]1[C@@H]2C(=O)N1CCc2cc(OC)c(OC)cc2C1",
    "composite z-score": -0.148
  },
  {
    "Compound": "COc1cc2c(cc1O)C(C)N(Cc1cccc(OC(F)(F)F)c1)CC2 (configuration not stated)",
    "composite z-score": 0.0326
  },
  {
    "Compound": "CCOC(=O)C[C@H]1[C@H](OC(=O)c2ccc(-c3ccccc3)cc2)[C@@H](NC(=O)c2ccc3ccccc3c2)c2cc(OCCCO)ccc2N1C(=O)Cc1ccc(OC)cc1",
    "composite z-score": 0.151
  },
  {
    "Compound": "CCOC(=O)[C@H]1C/C=C/C[C@H](C(=O)OCC)C(=O)O[C@H]2[C@@H](OC)O[C@H](CO)[C@@H](OC(=O)Nc3ccc4c(c3)OCO4)[C@@H]2OC1=O",
    "composite z-score": 0.28
  },
  {
    "Compound": "O=C1C2C=CC(C(O)c3ccc(B(O)O)cc3)N(Nc3ccccc3)C2C(=O)N1c1ccccc1 (configuration not stated)",
    "composite z-score": 0.151
  }
]

// composite z-score lookup, compound = O=C1OCC=C[C@H]2OC34C=CCN(c5ccc(Cl)cc5)C(=O)[C@H]3N(CCCCCCO)C(=O)[C@@H]4[C@@H]12 (some centres not stated) , result: 0.0062

The reported value for COc1cc(C(O)C2C=CC3C(=O)N(c4ccccc4)C(=O)C3N2Nc2ccc(C#N)cc2)cc(OC)c1OC (configuration not stated) in terms of composite z-score is 0.214
